Tested on: Staph. aureus 01A400R
Experiment: minimum inhibitory concentration (MIC), Staph. aureus 01A400R
Type: cell-based
Settings: Staphylococcus aureus; in vitro; Staph. aureus 01A400R, Gram-positive; read-out: MIC Values, Staph. aureus 01A400R
Lab note: anything with MIC below 20 µg/mL is marked TRUE; values at 20 µg/mL or higher are marked FALSE.

compound: C=C1CC(C)C(OC2OC(C)CC(N(C)C)C2OC(C)=O)C(C)C(OC2CC(OC)C(OC(C)=O)C(C)O2)C(C)C(=O)OC(C)C(C)C(OC(C)=O)C(C)C1=O (stereo not shown)
class-assignment: FALSE

In: API: query returns whether the compound falls strictly under 20 µg/mL in MIC. Query: C=C1CC(C)C(OC2OC(C)CC(N(C)C)C2OC(C)=O)C(C)C(OC2CC(OC)C(O)C(C)O2)C(C)C(=O)OC(C)C(C)C(OC(C)=O)C(C)C1=O (stereo not shown)
Out: FALSE

In: API: query returns whether the compound falls strictly under 20 µg/mL in MIC. Query: COC1CC(OC2C(C)C(=O)OC(C)C(C)C(O)C(C)C(=O)C3(CC3)CC(C)C(OC3OC(C)CC(N(C)C)C3O)C2C)OC(C)C1O (stereo not shown)
Out: TRUE

In: API: query returns whether the compound falls strictly under 20 µg/mL in MIC. Query: COC1CC(OC2C(C)C(=O)OC(C)C(C)C(OC(C)=O)C(C)C(=O)C3(CC3)CC(C)C(OC3OC(C)CC(N(C)C)C3OC(C)=O)C2C)OC(C)C1OC(C)=O (stereo not shown)
Out: TRUE
